Target: T1, Vm-EYFP, P05923
T1 chain: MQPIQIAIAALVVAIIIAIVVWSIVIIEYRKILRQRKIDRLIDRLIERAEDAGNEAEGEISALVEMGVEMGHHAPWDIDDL
Assay: BRET assay
Conditions: chain shown with the change; HEK293T cells; forty-eight hours post-transfection; parent: est. 1.6; read off a plot
# response per entry

What value of response has been recorded for this entry: Rluc-BST2, Q10589 L31A; L32A; I33A (protein) MASTSYDYCRVPMEDGDKRCKLLLGIGILVAAAIVILGVPLIIFTIKANSEACRDGLRAVMECRNVTHLLQQELTEAQKGFQDVEAQAATCNHTVMALMASLDAEKAQGQKKVEELEGEITTLNHKLQDASAEVERLRRENQVLSVRIADKKYYPSSQDSS
1.3

Repeat with Rluc-BST2, Q10589 I43A; F44A; T45A (protein) MASTSYDYCRVPMEDGDKRCKLLLGIGILVLLIIVILGVPLIAAAIKANSEACRDGLRAVMECRNVTHLLQQELTEAQKGFQDVEAQAATCNHTVMALMASLDAEKAQGQKKVEELEGEITTLNHKLQDASAEVERLRRENQVLSVRIADKKYYPSSQDSS
1.6
